The entries below are paired with their reported IC50.
- TARGET UNDER TEST: Brd4 bromodomain (Homo sapiens, UniProt O60885)
- Construct: glutathione-S-transferase (GST) and His-tagged bromodomain
- MEASUREMENT NOTES: Alpha-screen enzyme assay (bromodomain binding to acetylated histone peptide)
- MEASUREMENT CONDITIONS: alpha-screen assay, inhibition of bromodomain binding activity; calculated with Prism6
QUANTITY KIND: IC50 (µM)

compound="CCN(CC)c1ccc2c3c1Oc1ccc(O)cc1C=C3N(C)C2=O [Compound 8cb]" comparison_operator== test_result=4.89
compound="CCOc1ccc2c3c1Oc1ccc(C(F)(F)F)cc1C=C3N(C)C2=O [Compound 8bj]" comparison_operator=> test_result=9
compound="CCOc1ccc2c3c1Oc1ccc(OCc4ccccn4)cc1C=C3N(C)C2=O [Compound 8bn]" comparison_operator== test_result=0.68

---

- TARGET UNDER TEST: Brd4 bromodomain (Homo sapiens)
- Construct: glutathione-S-transferase (GST) and His-tagged bromodomain
- MEASUREMENT NOTES: Alpha-screen enzyme assay (bromodomain binding to acetylated histone peptide)
- MEASUREMENT CONDITIONS: alpha-screen assay, inhibition of bromodomain binding activity; calculated with Prism6
pIC50: −log10 of the molar value.
QUANTITY KIND: pIC50

molecule="COc1ccc2c3c1Oc1ccc(C(F)(F)F)cc1C=C3N(C)C2=O [Compound 8bb]" target_under_test="Brd4 bromodomain (Homo sapiens)" comparison_operator=< test_result=4.49
molecule="CCOc1c(OC)ccc2c1Oc1c(OC)ccc3c1C(=C2)N(C)C3=O [Compound 8ab]" target_under_test="Brd4 bromodomain (Homo sapiens)" comparison_operator== test_result=6.07
molecule="COc1ccc2c3c1Oc1ccc(OCc4ccccc4)cc1C=C3N(C)C2=O [Compound 8bg]" target_under_test="Brd4 bromodomain (Homo sapiens)" comparison_operator=< test_result=4.49
molecule="CCCc1ccc2c3c1Oc1ccc(OCc4ccccn4)cc1C=C3N(C)C2=O [Compound 8dc]" target_under_test="Brd4 bromodomain (Homo sapiens)" comparison_operator== test_result=5.86
molecule="CCOc1ccc2c3c1Oc1ccc(OC)cc1C=C3N(C)C2=O [Compound 8bk]" target_under_test="Brd4 bromodomain (Homo sapiens)" comparison_operator== test_result=6.07
molecule="CCOc1ccc2c3c1Oc1cc4c(cc1C=C3N(C)C2=O)OCO4 [Compound 8bp]" target_under_test="Brd4 bromodomain (Homo sapiens)" comparison_operator== test_result=5.54
molecule="CCN(CC)c1ccc2c3c1Oc1ccc(O)cc1CC3N(C)C2=O (stereo not drawn) [Compound 8cc]" target_under_test="Brd4 bromodomain (Homo sapiens)" comparison_operator== test_result=5.23
molecule="CCOc1ccc2c3c1Oc1ccc(OCCN(CC)CC)cc1C=C3N(C)C2=O [Compound 8bm]" target_under_test="Brd4 bromodomain (Homo sapiens)" comparison_operator== test_result=6.04
molecule="COc1ccc2c(c1)C=C1c3c(ccc(OC)c3O2)C(=O)N1C [Compound 8bc]" target_under_test="Brd4 bromodomain (Homo sapiens)" comparison_operator== test_result=6.39

---

- TARGET UNDER TEST: Brd4 bromodomain (Homo sapiens)
- Construct: glutathione-S-transferase (GST) and His-tagged bromodomain; made in house
- MEASUREMENT NOTES: Alpha-screen enzyme assay (bromodomain binding to acetylated histone peptide)
- MEASUREMENT CONDITIONS: alpha-screen assay
QUANTITY KIND: inhibitory activity against Brd4 bromodomain (in words)

line_notation=COc1ccc2c3c1Oc1cc4c(cc1C=C3N(C)C2=O)OCO4 test_result="modest inhibition"
line_notation=CCOc1ccc2c3c1Oc1cc4c(cc1C=C3N(C)C2=O)OCO4 test_result="modest inhibition"

---

- TARGET UNDER TEST: Brd4 bromodomain (Homo sapiens, UniProt O60885)
- Construct: glutathione-S-transferase (GST) and His-tagged bromodomain
- MEASUREMENT NOTES: Alpha-screen enzyme assay (bromodomain binding to acetylated histone peptide);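 further: AlphaScreen proximity readout pairing streptavidin donor beads with anti-GST acceptor beads, with hits checked against bead interference using a TruHit control kit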
- MEASUREMENT CONDITIONS: alpha-screen assay, inhibition of bromodomain binding activity; calculated with Prism6
pIC50: −log10 of the molar value.
The entries below are paired with their reported pIC50.
QUANTITY KIND: pIC50

line_notation=CCOc1ccc2c3c1Oc1c(ccc(OC)c1OC)C=C3N(C)C2=O comparison_operator== test_result=5.38
line_notation=COc1ccc2c3c1Oc1ccc(OCC(C)C)cc1C=C3N(C)C2=O comparison_operator== test_result=4.78
line_notation=COc1cccc2c1Oc1c(OC)ccc3c1C(=C2)N(C)C3=O comparison_operator== test_result=6.08
line_notation=CCN(CC)c1ccc2c3c1Oc1cc4c(cc1C=C3N(C)C2=O)OCO4 comparison_operator== test_result=5.14
line_notation=CCCc1ccc2c3c1Oc1ccc(OCC(C)C)cc1C=C3N(C)C2=O comparison_operator== test_result=5.18
line_notation=COc1ccc2c3c1Oc1cc4c(cc1C=C3N(C)C2=O)OCO4 comparison_operator== test_result=4.95
line_notation=Cc1ccc2c3c1Oc1ccc(C(F)(F)F)cc1C=C3N(C)C2=O comparison_operator=< test_result=4.49
line_notation=COc1ccc2c3c1Oc1ccc(O)cc1C=C3N(C)C2=O comparison_operator== test_result=6.39
line_notation=CCOc1ccc2c3c1Oc1c(ccc(OC)c1OCCc1ccc(OC)cc1)C=C3N(C)C2=O comparison_operator== test_result=5.27
line_notation=CCOc1ccc2c3c1Oc1ccc(O)cc1C=C3N(C)C2=O comparison_operator== test_result=5.95
line_notation=COc1ccc2c3c1Oc1ccc(OCc4ccccn4)cc1C=C3N(C)C2=O comparison_operator== test_result=6.04
line_notation=CCN(CC)c1ccc2c3c1Oc1ccc(OCc4ccccc4)cc1C=C3N(C)C2=O comparison_operator=< test_result=4.49
line_notation=CCCc1ccc2c3c1Oc1cc4c(cc1C=C3N(C)C2=O)OCO4 comparison_operator== test_result=5.57
line_notation=CCCc1ccc2c3c1Oc1ccc(OCc4ccccc4)cc1C=C3N(C)C2=O comparison_operator== test_result=5.05
line_notation=CCN(CC)CCOc1ccc2c(c1)C=C1c3c(ccc(OC)c3O2)C(=O)N1C comparison_operator== test_result=6.07
line_notation=CCCc1ccc2c3c1Oc1ccc(C(F)(F)F)cc1C=C3N(C)C2=O comparison_operator=< test_result=4.49
line_notation=CCOc1ccc2c3c1Oc1ccc(OCC(C)C)cc1C=C3N(C)C2=O comparison_operator=< test_result=5.00
line_notation=COc1ccc(CCOc2c(OC)ccc3c2Oc2c(OC)ccc4c2C(=C3)N(C)C4=O)cc1 comparison_operator== test_result=5.43

---

QUANTITY KIND: melting point

molecule="CCCc1ccc2c3c1Oc1ccc(OCC(C)C)cc1C=C3N(C)C2=O [Compound 8da]" quantity_kind="melting point" test_result="196 to 199 °C"
molecule="CCOc1ccc2c3c1Oc1ccc(OCC(C)C)cc1C=C3N(C)C2=O [Compound 8bi]" quantity_kind="melting point" test_result="178 to 180 °C"
molecule="CCOc1ccc2c3c1Oc1ccc(OC)cc1C=C3N(C)C2=O [Compound 8bk]" quantity_kind="melting point" test_result="214 to 216 °C"
molecule="Cc1ccc2c3c1Oc1ccc(C(F)(F)F)cc1C=C3N(C)C2=O [Compound 8df]" quantity_kind="melting point" test_result="227 to 229 °C"
molecule="COc1ccc2c(c1OCCCOc1ccccc1)Oc1c(OC)ccc3c1C(=C2)N(C)C3=O [Compound 8ad]" quantity_kind="melting point" test_result="189 to 191 °C"
molecule="COc1ccc2c3c1Oc1ccc(O)cc1C=C3N(C)C2=O [Compound 8bd]" quantity_kind="melting point" test_result="177 to 179 °C"
molecule="COc1ccc2c3c1Oc1cc4c(cc1C=C3N(C)C2=O)OCO4 [Compound 8bh]" quantity_kind="melting point" test_result="237 to 239 °C"
molecule="CCOc1ccc2c3c1Oc1c(ccc(OC)c1OCCc1ccc(OC)cc1)C=C3N(C)C2=O [Compound 8af]" quantity_kind="melting point" test_result="189 to 191 °C"
molecule="COc1ccc2c(c1)C=C1c3c(ccc(OC)c3O2)C(=O)N1C [Compound 8bc]" quantity_kind="melting point" test_result="194 to 196 °C"
molecule="CCOc1ccc2c3c1Oc1ccc(OCc4ccccc4)cc1C=C3N(C)C2=O [Compound 8bo]" quantity_kind="melting point" test_result="198 to 200 °C"
molecule="COc1cccc2c1Oc1c(OC)ccc3c1C(=C2)N(C)C3=O [Compound 8aa]" quantity_kind="melting point" test_result="208 to 210 °C"
molecule="CCOc1ccc2c3c1Oc1ccc(OCc4ccccn4)cc1C=C3N(C)C2=O [Compound 8bn]" quantity_kind="melting point" test_result="188 to 190 °C"
molecule="CCOc1ccc2c3c1Oc1c(ccc(OC)c1OC)C=C3N(C)C2=O [Compound 8ae]" quantity_kind="melting point" test_result="219 to 220 °C"
molecule="COc1ccc2c3c1Oc1ccc(OCc4ccccn4)cc1C=C3N(C)C2=O [Compound 8bf]" quantity_kind="melting point" test_result="176 to 178 °C"
molecule="CCN(CC)c1ccc2c3c1Oc1ccc(O)cc1CC3N(C)C2=O (centres unmarked) [Compound 8cc]" quantity_kind="melting point" test_result="165 to 167 °C"
molecule="CCN(CC)c1ccc2c3c1Oc1ccc(O)cc1C=C3N(C)C2=O [Compound 8cb]" quantity_kind="melting point" test_result="181 to 183 °C"
molecule="CCCc1ccc2c3c1Oc1ccc(OCc4ccccc4)cc1C=C3N(C)C2=O [Compound 8dd]" quantity_kind="melting point" test_result="203 to 205 °C"
molecule="CCN(CC)c1ccc2c3c1Oc1ccc(OCc4ccccc4)cc1C=C3N(C)C2=O [Compound 8cd]" quantity_kind="melting point" test_result="185 to 188 °C"
molecule="CCN(CC)CCOc1ccc2c(c1)C=C1c3c(ccc(OC)c3O2)C(=O)N1C [Compound 8be]" quantity_kind="melting point" test_result="174 to 176 °C"
molecule="CCCc1ccc2c3c1Oc1ccc(C(F)(F)F)cc1C=C3N(C)C2=O [Compound 8db]" quantity_kind="melting point" test_result="239 to 241 °C"
molecule="CCN(CC)c1ccc2c3c1Oc1cc4c(cc1C=C3N(C)C2=O)OCO4 [Compound 8ce]" quantity_kind="melting point" test_result="199 to 201 °C"
molecule="CCCc1ccc2c3c1Oc1cc4c(cc1C=C3N(C)C2=O)OCO4 [Compound 8de]" quantity_kind="melting point" test_result="257 to 259 °C"
molecule="CCOc1ccc2c3c1Oc1cc4c(cc1C=C3N(C)C2=O)OCO4 [Compound 8bp]" quantity_kind="melting point" test_result="207 to 209 °C"
molecule="CCOc1ccc2c3c1Oc1ccc(OCCN(CC)CC)cc1C=C3N(C)C2=O [Compound 8bm]" quantity_kind="melting point" test_result="169 to 171 °C"
molecule="CCOc1ccc2c3c1Oc1ccc(C(F)(F)F)cc1C=C3N(C)C2=O [Compound 8bj]" quantity_kind="melting point" test_result="230 to 232 °C"
molecule="COc1ccc2c3c1Oc1ccc(OCc4ccccc4)cc1C=C3N(C)C2=O [Compound 8bg]" quantity_kind="melting point" test_result="187 to 189 °C"
